Molecular target: p-EGFR L858R (BaF3-L858R cells) (Homo sapiens, UniProt P00533, L858R)
Construct: host or cells: BaF3
Experiment: Cell p-EGFR inhibition assay, HTRF, BaF3-L858R cells
Assay type: cell-based
Settings: 16 h treatment, maximum percentage of pEGFR inhibition
t means recorded Imax (%) is 90% or above; f means it is below 90%.

IN: Does the compound COC[C@H]1CN(c2ccc3c(c2)N2C[C@@H]4CC[C@H](COc5c(cnn5C)-c5cc(cc(C)n5)C(=O)/N=C/2N3)C4)CCN1C1CCN(c2cc(F)c([C@H]3CCC(=O)NC3=O)c(F)c2)CC1 have recorded Imax (%) that is 90% or more?
OUT: t

IN: // query: COC[C@@H]1CN(c2ccc3c(c2)N2CC4CC[C@H](COc5c(cnn5C)-c5cc(cc(C)n5)C(=O)/N=C/2N3)C4)CCN1C1CCN(c2ccc(NC3CCC(=O)NC3=O)cc2C)CC1 (some centres unmarked)
OUT: t

IN: // query: Cc1cc2cc(n1)-c1c(C)nn(C)c1OC[C@H]1CC[C@H](C1)CN1/C(=N/C2=O)Nc2ccc(N3C[C@@H](C)N(C4CCN(c5cc(F)c([C@H]6CCC(=O)NC6=O)c(F)c5)CC4)C[C@H]3C)cc21
OUT: f

IN: // query: COC[C@H]1CN(c2cc3c(cc2F)N/C2=N\C(=O)c4cc(C)nc(c4)-c4c(C)nn(C)c4OC[C@H]4CC[C@H](C4)CN23)CCN1C1CCN(c2cc(F)c([C@H]3CCC(=O)NC3=O)c(F)c2)CC1
OUT: t

###

Biological target: EGFR L858R (BaF3-L858R cells) (Homo sapiens, UniProt P00533, L858R)
Construct: host or cells: BaF3
Assay: Cell degradation of EGFR, HTRF assay, BaF3-L858R cells
Assay type: cell-based
Conditions: 16 h treatment, maximum percentage of degradation
Reported Dmax values for a set of molecules
Please give the number followed by its unit.

molecule: Cc1cc2cc(n1)-c1c(C)nn(C)c1OC[C@H]1CCC(C1)CN1/C(=N/C2=O)Nc2ccc(N3CCN(C4CCN(c5cc(F)c([C@H]6CCC(=O)NC6=O)c(F)c5)CC4)CC3)cc21
system-under-test: EGFR L858R (BaF3-L858R cells) (Homo sapiens, UniProt P00533, L858R)
Dmax: 90.4%
//
molecule: COC[C@H]1CN(c2ccc3c(c2)N2C[C@@H]4CC[C@H](COc5c(c(C)nn5C)-c5cc(cc(Cl)n5)C(=O)/N=C/2N3)C4)CCN1C1CCN(c2cc(F)c([C@H]3CCC(=O)NC3=O)c(F)c2)CC1
system-under-test: EGFR L858R (BaF3-L858R cells) (Homo sapiens, UniProt P00533, L858R)
Dmax: 89%
//
molecule: Cc1cc2cc(n1)-c1c(C)nn(C)c1OC[C@H]1CCC(C1)CN1/C(=N/C2=O)Nc2ccc(N3CCN([C@@H]4CCN(c5ccc(C6CCC(=O)NC6=O)nc5C)C[C@@H]4F)CC3)cc21 (stereo partly drawn)
system-under-test: EGFR L858R (BaF3-L858R cells) (Homo sapiens, UniProt P00533, L858R)
Dmax: 92.6%
//
molecule: COC[C@H]1CN(c2ccc3c(c2)N2CC4CC[C@H](COc5c(c(C)nn5C)-c5cc(cc(C)n5)C(=O)/N=C/2N3)C4)CCN1C1CCN(c2cc(F)c([C@H]3CCC(=O)NC3=O)c(F)c2)CC1
system-under-test: EGFR L858R (BaF3-L858R cells) (Homo sapiens, UniProt P00533, L858R)
Dmax: 81.5%
//
molecule: COC[C@H]1CN(c2ccc3c(c2)N2C[C@@H]4CC[C@H](COc5c(cnn5C)-c5cc(cc(C)n5)C(=O)/N=C/2N3)C4)CCN1C1CN(C2CCN(c3cc(F)c([C@H]4CCC(=O)NC4=O)c(F)c3)CC2)C1
system-under-test: EGFR L858R (BaF3-L858R cells) (Homo sapiens, UniProt P00533, L858R)
Dmax: 91.6%
//
molecule: COC[C@H]1CN(c2ccc3c(c2)N2C[C@@H]4CC[C@H](COc5c(c(C)nn5C)-c5cc(cc(C)n5)C(=O)/N=C/2N3)C4)CCN1C1CCN(c2c(C)cc(C3CCC(=O)NC3=O)nc2C)CC1 (stereo partly drawn)
system-under-test: EGFR L858R (BaF3-L858R cells) (Homo sapiens, UniProt P00533, L858R)
Dmax: 87.5%

IN: What value of Dmax on EGFR L858R (BaF3-L858R cells) (Homo sapiens, UniProt P00533, L858R) does Cc1cc2cc(n1)-c1cnn(C)c1OC[C@H]1CCC(C1)CN1/C(=N/C2=O)Nc2ccc(N3CC4(CCN(C5CN(c6cc(F)c([C@H]7CCC(=O)NC7=O)c(F)c6)C5)CC4)C3)cc21 have?
OUT: 83.3%

IN: // query: Cc1cc2cc(n1)-c1c(C)nn(C)c1OC[C@H]1CC[C@H](C1)CN1/C(=N/C2=O)Nc2ccc(N3CCN(C4CCN(c5cc(F)c([C@H]6CCC(=O)NC6=O)c(F)c5)CC4)C[C@H]3C)cc21
OUT: 88.2%

IN: // query: COC[C@@H]1CN(c2ccc3c(c2)N2C[C@@H]4CC[C@H](COc5c(cnn5C)-c5cc(cc(C)n5)C(=O)/N=C/2N3)C4)CCN1C1CCN(c2cc(F)c([C@H]3CCC(=O)NC3=O)c(F)c2)CC1
OUT: 86.6%

###

Molecular target: p-EGFR Del19/C797S (H1975-clone #23 cells) (Homo sapiens, UniProt P00533)
Experiment: Cell p-EGFR inhibition assay, HTRF, H1975-clone#23 (DEL19/C797S) cells
Type: cell-based
Conditions: 16 h treatment, maximum percentage of pEGFR inhibition
Reported Imax (%) values for a set of molecules
Please give the number followed by its unit.

molecule: CC[C@H]1CN(c2ccc3c(c2)N2C[C@@H]4CC[C@H](COc5c(c(C)nn5C)-c5cc(cc(C)n5)C(=O)/N=C/2N3)C4)CCN1C1CCN(c2cc(F)c([C@H]3CCC(=O)NC3=O)c(F)c2)CC1
system-under-test: p-EGFR Del19/C797S (H1975-clone #23 cells) (Homo sapiens, UniProt P00533)
result: 100.03%
//
molecule: COC[C@@H]1CN(c2ccc3c(c2)N2CC4CC[C@H](COc5c(cnn5C)-c5cc(cc(C)n5)C(=O)/N=C/2N3)C4)CCN1C1CCN(c2ccc(NC3CCC(=O)NC3=O)cc2C)CC1 (stereo partly shown)
system-under-test: p-EGFR Del19/C797S (H1975-clone #23 cells) (Homo sapiens, UniProt P00533)
result: 100.2%
//
molecule: Cc1cc2cc(n1)-c1c(C)nn(C)c1OC[C@H]1CC[C@H](C1)CN1/C(=N/C2=O)Nc2ccc(N3CCN([C@@H]4CCN(c5ccc(OC6CCC(=O)NC6=O)cc5)C[C@@H]4F)CC3)cc21 (stereo partly shown)
system-under-test: p-EGFR Del19/C797S (H1975-clone #23 cells) (Homo sapiens, UniProt P00533)
result: 100.78%
//
molecule: COC[C@H]1CN(c2cc3c(cc2F)N/C2=N\C(=O)c4cc(C)nc(c4)-c4c(C)nn(C)c4OC[C@H]4CC[C@H](C4)CN23)CCN1C1CCN(c2cc(F)c([C@H]3CCC(=O)NC3=O)c(F)c2)CC1
system-under-test: p-EGFR Del19/C797S (H1975-clone #23 cells) (Homo sapiens, UniProt P00533)
result: 94.62%
//
molecule: Cc1cc2cc(n1)-c1c(C)nn(C)c1OC[C@H]1CC[C@H](C1)CN1/C(=N/C2=O)Nc2ccc(N3CCN(CC4CCN(c5cc(F)c([C@H]6CCC(=O)NC6=O)c(F)c5)CC4)CC3)cc21
system-under-test: p-EGFR Del19/C797S (H1975-clone #23 cells) (Homo sapiens, UniProt P00533)
result: 99.73%
//
molecule: COC[C@@H]1CN(c2cc3c(cc2C)N/C2=N\C(=O)c4cc(C)nc(c4)-c4c(C)nn(C)c4OC[C@H]4CC[C@H](C4)CN23)CCN1C1CCN(c2cc(F)c([C@H]3CCC(=O)NC3=O)c(F)c2)CC1
system-under-test: p-EGFR Del19/C797S (H1975-clone #23 cells) (Homo sapiens, UniProt P00533)
result: 103.01%
//
molecule: COC[C@H]1CN(c2ccc3c(c2)N2C[C@@H]4CC[C@H](COc5c(c(C)nn5C)-c5cc(cc(C)n5)C(=O)/N=C/2N3)C4)CCN1C1CN(C2CCN(c3cc(F)c([C@H]4CCC(=O)NC4=O)c(F)c3)CC2)C1
system-under-test: p-EGFR Del19/C797S (H1975-clone #23 cells) (Homo sapiens, UniProt P00533)
result: 99.52%
//
molecule: COCC1(N2CCN(c3ccc4c(c3)N3CC5CC[C@H](COc6c(cnn6C)-c6cc(cc(C)n6)C(=O)/N=C/3N4)C5)CC2)CCN(c2ccc(C3CCC(=O)NC3=O)nc2C)CC1 (stereo partly shown)
system-under-test: p-EGFR Del19/C797S (H1975-clone #23 cells) (Homo sapiens, UniProt P00533)
result: 99.8%

Shift focus to the following entry.
IN: Look up Imax (%): Cc1cc2cc(n1)-c1cnn(C)c1OC[C@H]1CCC(C1)CN1/C(=N/C2=O)Nc2ccc(N3CCN(C4CCN(c5c(F)cc(NC6CCC(=O)NC6=O)cc5F)CC4)CC3)cc21 (stereo partly shown)
OUT: 100.1%
